Entries and their pIC50
- System under test: CDC42 (Homo sapiens)
- Sequence (P60953 whole entry): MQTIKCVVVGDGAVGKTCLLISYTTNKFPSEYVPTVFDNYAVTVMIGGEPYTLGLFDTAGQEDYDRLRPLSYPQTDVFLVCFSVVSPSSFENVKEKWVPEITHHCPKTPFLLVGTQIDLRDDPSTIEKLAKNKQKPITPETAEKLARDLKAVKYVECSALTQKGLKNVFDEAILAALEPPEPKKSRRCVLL
- Assay text: BODIPY-FL-GTP binding to CDC42
Please report pIC50 as the negative decimal logarithm of the molar concentration, giving only the number.

Worked cases, pIC50 given:
{"Compound": "COc1ccc(C2C(C)C(c3ccccc3)=NN2c2ccc(S(N)(=O)=O)cc2)cc1 (centres unmarked) [RSM 19]", "Reported": 4.87}
{"Compound": "COc1ccc(C2CC(c3ccccc3)=NN2c2ccc(S(N)(=O)=O)cc2)cc1OC (centres unmarked) [RSM 15]", "Reported": 5.66}
{"Compound": "COc1ccc(C2=NN(c3ccc(S(N)(=O)=O)cc3)C(c3ccccc3)C2)cc1 (centres unmarked) [RSM 07]", "Reported": 5.21}
{"Compound": "COc1ccc(C2C3Cc4ccccc4C3=NN2c2ccc(S(N)(=O)=O)cc2)cc1 (centres unmarked) [RSM 21]", "Reported": 5.26}
{"Compound": "COCCOc1ccc(C2=NN(c3ccc(S(N)(=O)=O)cc3)C(c3ccc(Cl)cc3)C2)cc1 (centres unmarked) [RSM 20]", "Reported": 4.33}
{"Compound": "COc1ccc(C2=NN(c3ccc(S(N)(=O)=O)cc3)C(c3ccc(OC)c(OC)c3)C2)cc1 (centres unmarked) [RSM 16]", "Reported": 5.43}
{"Compound": "COc1ccc(C2=NN(c3ccc(S(N)(=O)=O)cc3)C(c3ccc4c(c3)OCO4)C2)cc1 (centres unmarked) [RSM 06]", "Reported": 5.00}

In: GET /values?readout=pIC50&item= NS(=O)(=O)c1ccc(N2N=C(c3ccccc3)CC2c2ccc3c(c2)OCO3)cc1 (centres unmarked) [RSM 05]
Out: 5.47

###

- Tested on: Human umbilical vein endothelial cells
- Assay text: Cytotoxicity by propidium iodide exclusion, HUVEC
- Type: cell-based
- Protocol conditions: HUVEC pretreated 18-20 h
Quantity: Mean fluorescence intensity (×10^4 ± SEM), Compound (10 μM)

{"Molecule": "COc1ccc(C2=NN(c3ccc(S(N)(=O)=O)cc3)C(c3ccccc3)C2)cc1 (centres unmarked)", "Reported": "2.5 ± 0.4 ×10^4"}
{"Molecule": "NS(=O)(=O)c1ccc(N2N=C(c3ccccc3)CC2c2ccc3c(c2)OCO3)cc1 (centres unmarked)", "Reported": "3.9 ± 0.2 ×10^4"}
{"Molecule": "COc1ccc(C2(C)CC(c3ccccc3)=NN2c2ccc(S(N)(=O)=O)cc2)cc1 (centres unmarked)", "Reported": "26.8 ± 2.1 ×10^4"}
{"Molecule": "COc1ccc(C2=NN(c3ccc(S(N)(=O)=O)cc3)C(c3ccc(OC)c(OC)c3)C2)cc1 (centres unmarked)", "Reported": "1.4 ± 0.2 ×10^4"}

In: Which measured Mean fluorescence intensity (×10^4 ± SEM), Compound (10 μM) belongs to COc1ccc(C2=NN(c3ccc(S(N)(=O)=O)cc3)C(c3ccc4c(c3)OCO4)C2)cc1 (centres unmarked) , tested on Human umbilical vein endothelial cells?
Out: 2.8 ± 0.1 ×10^4

In: Which measured Mean fluorescence intensity (×10^4 ± SEM), Compound (10 μM) belongs to COc1ccc(C2C(C)C(c3ccccc3)=NN2c2ccc(S(N)(=O)=O)cc2)cc1 (centres unmarked) , tested on Human umbilical vein endothelial cells?
Out: 2.6 ± 0.01 ×10^4

###

- Tested on: RAW 264.7 cells
- Assay text: Cytotoxicity by propidium iodide, RAW 264.7 cells
- Assay type: cell-based
- Protocol conditions: RAW 264.7 pretreated 18-20 h
Entries and their Mean fluorescence intensity (×10^3 ± SEM), Compound (10 μM)

Worked cases, Mean fluorescence intensity (×10^3 ± SEM), Compound (10 μM) given:
{"Compound": "COc1ccc(C2CC(c3ccccc3)=NN2c2ccc(S(N)(=O)=O)cc2)cc1 (centres unmarked)", "Reported": "2.5 ± 0.3 ×10^3"}
{"Compound": "CCC(=O)Nc1ccc(C2=NN(c3ccc(S(N)(=O)=O)cc3)C(c3ccc(OC)cc3)C2)cc1 (centres unmarked)", "Reported": "2.8 ± 1.1 ×10^3"}
{"Compound": "COc1ccc(C2CC(c3ccc(NC(C)=O)cc3)=NN2c2ccc(S(N)(=O)=O)cc2)cc1 (centres unmarked)", "Reported": "2.4 ± 0.3 ×10^3"}
{"Compound": "COc1ccc(CCC(=NNc2ccc(S(N)(=O)=O)cc2)c2ccccc2)cc1", "Reported": "1.0 ± 0.1 ×10^3"}
{"Compound": "CCC(=O)Nc1cccc(C2=NN(c3ccc(S(N)(=O)=O)cc3)C(c3ccc(OC)cc3)C2)c1 (centres unmarked)", "Reported": "2.9 ± 1.1 ×10^3"}
{"Compound": "CC(=O)Nc1ccc(C2CC(c3ccccc3)=NN2c2ccc(S(N)(=O)=O)cc2)cc1 (centres unmarked)", "Reported": "4.2 ± 0.3 ×10^3"}
{"Compound": "COc1ccc(C2CC(c3cccc(NC(C)=O)c3)=NN2c2ccc(S(N)(=O)=O)cc2)cc1 (centres unmarked)", "Reported": "2.4 ± 0.4 ×10^3"}

Attention now shifts to the item below.
In: GET /values?readout=Mean fluorescence intensity (×10^3 ± SEM), Compound (10 μM)&item= CN(C)c1ccc(C2CC(c3ccccc3)=NN2c2ccc(S(N)(=O)=O)cc2)cc1 (centres unmarked)
Out: 11 ± 2.0 ×10^3
